System: A375 malignant melanoma
Assay: Inhibition of cell proliferation (14C-thymidine incorporation), A375
Assay type: cell-based, human
PARAMETER: IC50 (µM)
All answers are understood in µM, so give the number only.

Ask | GET /values?readout=IC50&item= O=S(=O)(c1ccccc1)n1cc(-c2ccnc(N[C@H]3CC[C@H](O)CC3)n2)c2cccnc21
Reply | 2.81

---

Tested on: A375 malignant melanoma
Assay: Inhibition of cell proliferation (14C-thymidine incorporation), A375
Format: cell-based, human
Conditions: Homo sapiens, A-375
PARAMETER: IC50 (nM)
# number only, unit nM dropped from output

Look over these answered cases.
COMPOUND: Cc1cc(CCN2CCN(C)CC2)ccc1Nc1nccc(-c2c[nH]c3ncccc23)n1 [Cpd 51]
SYSTEM_TESTED: A375 malignant melanoma
IC50, nM: 3.52
--
COMPOUND: c1cnc2[nH]cc(-c3ccnc(NC4CCCC4)n3)c2c1 [Cpd 14]
SYSTEM_TESTED: A375 malignant melanoma
IC50, nM: 93
--
COMPOUND: CCN(CC)CCc1ccc(Nc2nccc(-c3c[nH]c4ncccc34)n2)c(C)c1 [Cpd 47]
SYSTEM_TESTED: A375 malignant melanoma
IC50, nM: 2.88

Next compound, please.
Ask | Give A375 malignant melanoma IC50 for Cc1ccc(Nc2nccc(-c3c[nH]c4ncccc34)n2)c(C)c1 [Cpd 33]
Reply | 0.0467

---

Biological target: VEGF-R2 (Rattus norvegicus)
Construct: polyhistidine (N)
Sequence (O08775 786-1343): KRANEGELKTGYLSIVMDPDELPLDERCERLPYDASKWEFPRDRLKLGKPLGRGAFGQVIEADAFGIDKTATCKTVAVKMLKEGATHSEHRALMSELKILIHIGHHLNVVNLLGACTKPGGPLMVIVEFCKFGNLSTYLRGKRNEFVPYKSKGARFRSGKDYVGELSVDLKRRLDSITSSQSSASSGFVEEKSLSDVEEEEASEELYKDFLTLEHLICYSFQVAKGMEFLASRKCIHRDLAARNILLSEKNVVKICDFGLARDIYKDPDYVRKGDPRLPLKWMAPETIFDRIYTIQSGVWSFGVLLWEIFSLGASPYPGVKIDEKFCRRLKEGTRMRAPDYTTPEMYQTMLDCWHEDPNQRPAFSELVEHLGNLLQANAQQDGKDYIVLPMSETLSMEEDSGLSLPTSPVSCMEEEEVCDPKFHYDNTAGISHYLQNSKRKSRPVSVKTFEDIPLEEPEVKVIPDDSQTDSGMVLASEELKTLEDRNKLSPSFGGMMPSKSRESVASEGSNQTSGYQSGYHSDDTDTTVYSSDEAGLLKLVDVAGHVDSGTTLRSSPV
Assay: VEGF-R2 Screening Assay
Assay type: biochemical
Conditions: 33P-γ-ATP incorporation, 10 μM ATP
PARAMETER: IC50 (µM)
Give a bare numeral; the unit µM is implied.

INPUT_SMILES: c1cnc2[nH]cc(-c3ccnc(Nc4ccc(CCN5CCCC5)cc4)n3)c2c1
PARAMETER: IC50
TEST_VALUE: 0.065

INPUT_SMILES: COc1ccc(Nc2nccc(-c3c[nH]c4ncccc34)n2)c(C)c1
PARAMETER: IC50
TEST_VALUE: 1

INPUT_SMILES: CN(C)CCc1ccc(Nc2nccc(-c3c[nH]c4ncccc34)n2)cc1
PARAMETER: IC50
TEST_VALUE: 0.066

// moving on: another record for IC50
Ask | What does the record list as IC50 for COc1cc(Nc2nccc(-c3c[nH]c4ncccc34)n2)cc(OC)c1OC ?
Reply | 0.046

---

Entries and their IC50 values follow.
Target: CDK1:Cyclin-B (Homo sapiens, UniProt P06493)
Construct: purchased New England Biolabs, Beverly, Mass; 6020; host or cells: insect cells
Sequence (P06493 whole entry): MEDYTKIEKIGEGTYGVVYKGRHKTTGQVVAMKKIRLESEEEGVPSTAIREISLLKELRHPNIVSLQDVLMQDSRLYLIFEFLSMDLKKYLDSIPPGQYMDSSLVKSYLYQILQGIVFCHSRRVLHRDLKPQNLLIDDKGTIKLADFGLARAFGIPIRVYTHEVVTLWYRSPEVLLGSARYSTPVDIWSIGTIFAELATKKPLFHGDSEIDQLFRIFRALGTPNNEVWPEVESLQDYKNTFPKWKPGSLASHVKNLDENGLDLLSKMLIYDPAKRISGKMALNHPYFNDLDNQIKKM
Sequence (P14635 whole entry partner): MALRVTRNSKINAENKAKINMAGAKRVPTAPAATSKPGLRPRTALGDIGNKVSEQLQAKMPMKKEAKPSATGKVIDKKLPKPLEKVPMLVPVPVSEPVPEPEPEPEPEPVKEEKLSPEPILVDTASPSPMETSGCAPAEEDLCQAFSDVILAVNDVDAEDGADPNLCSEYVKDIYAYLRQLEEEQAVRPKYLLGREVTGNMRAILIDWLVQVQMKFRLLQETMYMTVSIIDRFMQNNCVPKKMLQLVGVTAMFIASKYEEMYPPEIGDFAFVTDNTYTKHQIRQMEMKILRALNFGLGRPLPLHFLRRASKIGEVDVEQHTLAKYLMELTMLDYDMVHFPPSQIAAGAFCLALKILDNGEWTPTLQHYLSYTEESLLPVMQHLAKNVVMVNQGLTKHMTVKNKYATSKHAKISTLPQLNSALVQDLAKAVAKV
Assay: CDK1 Screening Assay
Type: biochemical
Settings: 33P-γ-ATP incorporation, 10 μM ATP
Reply with just the number (in µM).

MOLECULE: Cc1cc(CCN2CCOCC2)ccc1Nc1nccc(-c2c[nH]c3ncccc23)n1 [Cpd 49]
UNIT_TAG: µM
IC50: 0.00196

Ask | So what's the measured IC50 for this one? CNCCc1ccc(Nc2nccc(-c3c[nH]c4ncccc34)n2)c(C)c1 [Cpd 45]
Reply | 0.00095

Ask | Find the recorded IC50 belonging to CN(C)CCn1cc(-c2ccnc(N[C@H]3CC[C@H](O)CC3)n2)c2cccnc21 [Cpd 74] and report it.
Reply | 3.89

Ask | // IC50 lookup, key: c1cnc2[nH]cc(-c3ccnc(Nc4ccc(CCN5CCNCC5)cc4)n3)c2c1 [Cpd 20]
Reply | 0.134

Ask | Which value of IC50 has been reported for Cn1cc(-c2ccnc(N[C@H]3CC[C@H](O)CC3)n2)c2cccnc21 [Cpd 71] in the records?
Reply | 1.65

Ask | Sample CCN(CC)CCc1ccc(Nc2nccc(-c3c[nH]c4ncccc34)n2)cc1 [Cpd 24] — what was its IC50?
Reply | 0.028

Ask | Requested read-out: IC50. Entry: Oc1ccc(Nc2nccc(-c3c[nH]c4ncccc34)n2)cc1 [Cpd 39]
Reply | 0.168

Ask | May I ask what IC50 has been recorded for OCCn1cc(-c2ccnc(N[C@H]3CC[C@H](O)CC3)n2)c2cccnc21 [Cpd 72] ?
Reply | 0.6

Ask | Quick one: IC50 for O=S(=O)(c1ccccc1)n1cc(-c2ccnc(N[C@H]3CC[C@H](O)CC3)n2)c2cccnc21 [Cpd 75] ?
Reply | 2.02

---

Target: RET (Homo sapiens)
Construct: the RET cytoplasmic domain consisting of the last 492 amino acids of the intracellular domain of the RET tyrosine kinase; histidine tag (N); made in house; host or cells: Hi5 insect cells
Sequence (P07949 658-1114 limits assumed): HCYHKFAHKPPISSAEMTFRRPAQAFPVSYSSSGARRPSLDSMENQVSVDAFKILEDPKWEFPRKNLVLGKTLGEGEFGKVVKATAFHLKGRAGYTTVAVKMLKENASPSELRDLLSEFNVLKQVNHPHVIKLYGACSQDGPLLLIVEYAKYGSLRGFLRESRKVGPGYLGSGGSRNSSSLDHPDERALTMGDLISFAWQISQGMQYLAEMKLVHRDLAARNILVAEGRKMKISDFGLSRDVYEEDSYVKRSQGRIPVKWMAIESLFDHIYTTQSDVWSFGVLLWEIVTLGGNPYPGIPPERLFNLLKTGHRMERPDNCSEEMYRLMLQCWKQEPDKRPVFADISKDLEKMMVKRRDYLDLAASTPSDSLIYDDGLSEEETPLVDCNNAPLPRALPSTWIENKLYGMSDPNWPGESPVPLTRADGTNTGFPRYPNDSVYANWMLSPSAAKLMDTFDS
Assay: RET Kinase Screening Assay
Format: biochemical
Conditions: 33P-γ-ATP incorporation, 10 μM ATP
Listed here: items and their measured IC50.

INPUT_SMILES: COc1cccc(Nc2nccc(-c3c[nH]c4ncccc34)n2)c1
IC50: ~1 µM

Ask | // query IC50 value for entry COc1ccc(Nc2nccc(-c3c[nH]c4ncccc34)n2)cc1
Reply | 1.14 µM

Ask | // returns reported IC50 for input Clc1ccc(Nc2nccc(-c3c[nH]c4ncccc34)n2)cc1
Reply | > 10 µM

Ask | For Cc1cc(CCN2CCCCC2)ccc1Nc1nccc(-c2c[nH]c3ncccc23)n1 , what is its reported IC50?
Reply | 3.07 µM

Ask | Entry Cc1cc(O)ccc1Nc1nccc(-c2c[nH]c3ncccc23)n1 has what IC50?
Reply | 4.82 µM

Ask | Recorded IC50 of CN1CCN(CCc2ccc(Nc3nccc(-c4c[nH]c5ncccc45)n3)c(Cl)c2)CC1 , please.
Reply | 1.15 µM

Ask | May I ask what IC50 has been recorded for OCCc1ccc(Nc2nccc(-c3c[nH]c4ncccc34)n2)cc1 ?
Reply | 0.337 µM

---

Target: CDK1:Cyclin-B (Homo sapiens, UniProt P06493)
Construct: purchased New England Biolabs, Beverly, Mass; 6020; host or cells: insect cells
Experiment: CDK1 Screening Assay
Format: biochemical
Details: 33P-γ-ATP incorporation, 10 μM ATP
Recorded IC50 determines the label; the label ranges are c1 = under 0.01 µM, c2 = from 0.01 µM up to 0.04 µM, c3 = 0.04 µM and over

Below, 4 compounds whose answers are already recorded.
COMPOUND: CC(=O)n1cc(-c2ccnc(NC3CCCCC3)n2)c2cccnc21
SYSTEM_TESTED: CDK1:Cyclin-B (Homo sapiens, UniProt P06493)
ASSIGNED_LABEL: c2

COMPOUND: COc1ccc(Nc2nccc(-c3c[nH]c4ncccc34)n2)c(C)c1
SYSTEM_TESTED: CDK1:Cyclin-B (Homo sapiens, UniProt P06493)
ASSIGNED_LABEL: c1

COMPOUND: CNCC[C@H]1CC[C@H](Nc2nccc(-c3c[nH]c4ncccc34)n2)CC1
SYSTEM_TESTED: CDK1:Cyclin-B (Homo sapiens, UniProt P06493)
ASSIGNED_LABEL: c1

COMPOUND: COc1ccc(Nc2nccc(-c3c[nH]c4ncccc34)n2)cc1
SYSTEM_TESTED: CDK1:Cyclin-B (Homo sapiens, UniProt P06493)
ASSIGNED_LABEL: c2

Ask | Using the reported IC50, which band applies to Brc1ccccc1Nc1nccc(-c2c[nH]c3ncccc23)n1 ?
Reply | c2

Ask | Which IC50 band matches O[C@H]1CC[C@H](Nc2nccc(-c3c[nH]c4ncccc34)n2)CC1 ?
Reply | c1

Ask | Assign a bin to c1cnc2[nH]cc(-c3ccnc(N[C@H]4CC5CCC4C5)n3)c2c1 (some centres unmarked)
Reply | c3

Ask | Sort c1cnc2[nH]cc(-c3ccnc(NC4CCCC4)n3)c2c1 into one of the categories.
Reply | c3

Ask | Dear colleague, I would appreciate it if you could identify the bin for CNCCOc1ccc(Nc2nccc(-c3c[nH]c4ncccc34)n2)c(C)c1 and reply at your convenience.
Reply | c3

Ask | Lab note: sort Nc1ccc(Nc2nccc(-c3c[nH]c4ncccc34)n2)cc1 into the matching IC50 band.
Reply | c2

Ask | Returns: class label. Input: Clc1ccc(Nc2nccc(-c3c[nH]c4ncccc34)n2)cc1
Reply | c3

Ask | Which of the defined bands does the recorded IC50 of Cc1ccccc1Nc1nccc(-c2c[nH]c3ncccc23)n1 sit within?
Reply | c1

Ask | Which category does the recorded IC50 put c1cnc2[nH]cc(-c3ccnc(NC4CCOCC4)n3)c2c1 in?
Reply | c2

Ask | Any idea which band Cc1cccc(Nc2nccc(-c3c[nH]c4ncccc34)n2)c1C is in?
Reply | c1

Ask | Hello team, could you let me know which band the following compound falls into: OCCn1cc(-c2ccnc(NC3CCCCC3)n2)c2cccnc21
Reply | c3

Ask | Please report the category associated with Cc1cc(CCN(C)C)ccc1Nc1nccc(-c2c[nH]c3ncccc23)n1 , nothing else.
Reply | c1

Ask | Which IC50 band matches CN1CCN(CCc2ccc(Nc3nccc(-c4c[nH]c5ncccc45)n3)cc2)CC1 ?
Reply | c3

Ask | Assign a category based on measured IC50 for COc1ccccc1Nc1nccc(-c2c[nH]c3ncccc23)n1 and give only the class name.
Reply | c3

Ask | Class for CNCCc1ccc(Nc2nccc(-c3c[nH]c4ncccc34)n2)c(Cl)c1 ?
Reply | c3
